Reference source for all entries: the supplement of paper PMC10567573

B1: SOAT2 (parent)
chain: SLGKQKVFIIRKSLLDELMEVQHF

Variants of: B1
Assay: protein stability index of a GFP-peptide fusion (GPS, HEK-293T) (PSI 1-6); higher = more stable;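 further: lentivirally expressed fusions sorted by FACS into six bins by GFP to DsRed ratio, PSI derived from sequencing read proportions per bin multiplied by bin number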
Conditions: c terminus: a fixed tail appended
Record t whenever protein stability index is at 2 or higher; record f when lower.

Illustrative cases are given below, each with its answer.
RESIDUE CODES | GROUP
SLGKQKPFIIRKSLLDELMEVQHF | f
SSGKQKVFIIRKSLLDELMEVQHF | t
SLGMQKVFIIRKSLLDELMEVQHF | t
SLGKQKVFIIRKSLCDELMEVQHF | t
SLNKQKVFIIRKSLLDELMEVQHF | t

## Input Is protein stability index for "SLGKQVVFIIRKSLLDELMEVQHF" at or above 2?
## Output f

## Input Is protein stability index for "SLGEQKVFIIRKSLLDELMEVQHF" at or above 2?
## Output f

## Input Is protein stability index for "SLGKQKVFIIRKSLLDELMEFQHF" at or above 2?
## Output t

## Input Is protein stability index for "SLGYQKVFIIRKSLLDELMEVQHF" at or above 2?
## Output t

## Input Is protein stability index for "SLSKQKVFIIRKSLLDELMEVQHF" at or above 2?
## Output t

## Input Is protein stability index for "SLGKQKVFIIRKLLLDELMEVQHF" at or above 2?
## Output t
